From: the supplement of paper PMC8617591

Tested on: Mycobacterium tuberculosis Erdman (autoluminescent)
runDescription: AUC25, normalised area under dose response up to IC25 (three-drug combination) (fraction (0-1)); higher = more potent at low dose
assaySetup: in vitro model: butyrate; time point: terminal (~4-5 doublings, model-specific)
Listing of entries alongside the reported AUC25.
endpointLabel: AUC25

[
  {
    "compound": "CC(C)/N=c1\\cc2n(-c3ccc(Cl)cc3)c3ccccc3nc-2cc1Nc1ccc(Cl)cc1 [clofazimine] + O=[N+]([O-])c1cn2c(n1)OC[C@@H](OCc1ccc(OC(F)(F)F)cc1)C2 [pretomanid] + CO[C@H]1/C=C/O[C@@]2(C)Oc3c(C)c(O)c4c(O)c(c(/C=N/N5CCN(C)CC5)c(O)c4c3C2=O)NC(=O)/C(C)=C\\C=C\\[C@H](C)[C@H](O)[C@@H](C)[C@@H](O)[C@@H](C)[C@H](OC(C)=O)[C@@H]1C [rifampicin]",
    "reportedMeasurement": 0.0947
  },
  {
    "compound": "NNC(=O)c1ccncc1 [isoniazid] + COc1c(N2C[C@@H]3CCCN[C@@H]3C2)c(F)cc2c(=O)c(C(=O)O)cn(C3CC3)c12 [moxifloxacin] + NC(=O)c1cnccn1 [pyrazinamide]",
    "reportedMeasurement": 0.0549
  },
  {
    "compound": "COc1nc2ccc(Br)cc2cc1[C@@H](c1ccccc1)[C@@](O)(CCN(C)C)c1cccc2ccccc12 [bedaquiline] + CC[C@@H](CO)NCCN[C@@H](CC)CO [ethambutol] + NC(=O)c1cnccn1 [pyrazinamide]",
    "reportedMeasurement": 0.0692
  }
]

====

Tested on: Mycobacterium tuberculosis Erdman (autoluminescent)
runDescription: GRinf, maximum normalised growth rate inhibition (unitless (-1 to 1)); higher = less effect (negative = killing)
assaySetup: in vitro model: butyrate; time point: constant (~7 days, model-specific)

[
  {
    "compound": "COc1nc2ccc(Br)cc2cc1[C@@H](c1ccccc1)[C@@](O)(CCN(C)C)c1cccc2ccccc12 [bedaquiline] + CC[C@@H](CO)NCCN[C@@H](CC)CO [ethambutol]",
    "GRinf": -0.0865
  },
  {
    "compound": "CC(=O)NC[C@H]1CN(c2ccc(N3CCOCC3)c(F)c2)C(=O)O1 [linezolid] + O=[N+]([O-])c1cn2c(n1)OC[C@@H](OCc1ccc(OC(F)(F)F)cc1)C2",
    "GRinf": 0.0334
  },
  {
    "compound": "O=[N+]([O-])c1cn2c(n1)OC[C@@H](OCc1ccc(OC(F)(F)F)cc1)C2 [pretomanid] + CO[C@H]1/C=C/O[C@@]2(C)Oc3c(C)c(O)c4c(O)c(c(/C=N/N5CCN(C)CC5)c(O)c4c3C2=O)NC(=O)/C(C)=C\\C=C\\[C@H](C)[C@H](O)[C@@H](C)[C@@H](O)[C@@H](C)[C@H](OC(C)=O)[C@@H]1C",
    "GRinf": 0.00239
  },
  {
    "compound": "CC[C@@H](CO)NCCN[C@@H](CC)CO [ethambutol] + CO[C@H]1/C=C/O[C@@]2(C)Oc3c(C)c(O)c4c(O)c(c(/C=N/N5CCN(C)CC5)c(O)c4c3C2=O)NC(=O)/C(C)=C\\C=C\\[C@H](C)[C@H](O)[C@@H](C)[C@@H](O)[C@@H](C)[C@H](OC(C)=O)[C@@H]1C [rifampicin]",
    "GRinf": -0.00723
  }
]
